- SYSTEM: T1, wild-type EGFR protein on the surfaces of A431 tumor cells and normal human primary hepatocytes (human, UniProt P00533 25-1210)
- T1 construct: whole, on cells; Same protein on two cell types; also called human epidermal growth factor receptor; her-1
- PROTOCOL DETAILS: FACS, A431 tumor cells
MEASURED ATTRIBUTE: mean fluorescence intensity (MFI)

Worked cases, answers included:
BINDER: Humanized antibody h63A10A7-25 (antibody, human IgG1, V domains shown, Human IgG1 constant region, human kappa constant region) VH: QVQLVQSGAEVKKPGASVKVSCKASGYTFISFTMHWVKQRPGQGLEWIGYINPNSGYTKYNQKFKDKATLTRDTSTSTVYMELSSLRSEDTAVYYCTRGGGRGFAYWGQGTLVTVSS VL: DILMTQSPSSLSASVGDRVTITCHASQDINSNIGWYQQKPGKSFKALIYHGTNLEDGVPSRFSGSGSGADYTLTISSLQPEDFATYYCVQYAQFPFTFGQGTKLEIK
MEASURED ATTRIBUTE: mean fluorescence intensity (MFI)
RESULT: 7360 MFI
--
BINDER: Humanized antibody h63A10A7-19 (antibody, human IgG1, V domains shown, Human IgG1 constant region, human kappa constant region) VH: QVQLVQSGAEVKKPGASVKVSCKASGYTFISFTMHWVKQRPGQGLEWMGYINPNSGYTKYNQKFKDKATMTRDTSTSTVYMELSSLRSEDTAVYYCTRGGGRGFAYWGQGTLVTVSS VL: DILMTQSPSSLSASVGDRVTITCHASQDINSNIGWLQQKPGKSFKALIYHGTNLEDGVPSRFSGSGSGADYTLTISSLQPEDFATYYCVQYAQFPFTFGQGTKLEIK
MEASURED ATTRIBUTE: mean fluorescence intensity (MFI)
RESULT: 3830 MFI
--
BINDER: Humanized antibody h63A10A7-20 (antibody, human IgG1, V domains shown, Human IgG1 constant region, human kappa constant region) VH: QVQLVQSGAEVKKPGASVKVSCKASGYTFISFTMHWVRQAPGQGLEWIGYINPNSGYTKYNQKFKDKATLTRDTSTSTVYMELSSLRSEDTAVYYCTRGGGRGFAYWGQGTLVTVSS VL: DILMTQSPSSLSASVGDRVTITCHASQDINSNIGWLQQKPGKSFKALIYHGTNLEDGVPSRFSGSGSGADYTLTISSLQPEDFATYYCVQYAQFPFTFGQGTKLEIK
MEASURED ATTRIBUTE: mean fluorescence intensity (MFI)
RESULT: 7460 MFI
--
BINDER: Humanized antibody h63A10A7-38 (antibody, human IgG1, V domains shown, Human IgG1 constant region, human kappa constant region) VH: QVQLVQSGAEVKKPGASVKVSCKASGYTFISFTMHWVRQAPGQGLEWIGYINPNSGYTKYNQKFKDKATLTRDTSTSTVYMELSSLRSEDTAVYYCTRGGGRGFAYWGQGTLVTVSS VL: DIQMTQSPSSLSASVGDRVTITCHASQDINSNIGWLQQKPGKSFKALIYHGTNLEDGVPSRFSGSGSGADYTLTISSLQPEDFATYYCVQYAQFPFTFGQGTKLEIK
MEASURED ATTRIBUTE: mean fluorescence intensity (MFI)
RESULT: 1060 MFI

For the binder shown here, Humanized antibody h63A10A7-22 (antibody, human IgG1, V domains shown, Human IgG1 constant region, human kappa constant region) VH: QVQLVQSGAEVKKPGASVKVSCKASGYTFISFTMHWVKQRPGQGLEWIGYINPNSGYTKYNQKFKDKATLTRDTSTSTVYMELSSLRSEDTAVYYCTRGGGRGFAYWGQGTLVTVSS VL: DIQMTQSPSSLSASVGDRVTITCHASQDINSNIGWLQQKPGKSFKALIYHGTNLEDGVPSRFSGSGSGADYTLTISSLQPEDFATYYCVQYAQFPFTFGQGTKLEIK , give the reported mean fluorescence intensity (MFI). 9380 MFI

Which mean fluorescence intensity (MFI) is reported for this binder? Humanized antibody h63A10A7-24 (antibody, human IgG1, V domains shown, Human IgG1 constant region, human kappa constant region) VH: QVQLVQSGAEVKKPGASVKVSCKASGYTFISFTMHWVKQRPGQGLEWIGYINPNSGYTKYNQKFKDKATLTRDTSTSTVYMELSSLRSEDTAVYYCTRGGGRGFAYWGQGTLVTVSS VL: DILMTQSPSSLSASVGDRVTITCHASQDINSNIGWLQQKPGKSFKALIYHGTNLEDGVPSRFSGSGSGTDYTLTISSLQPEDFATYYCVQYAQFPFTFGQGTKLEIK 9860 MFI

What mean fluorescence intensity (MFI) value was documented for this binder, Humanized antibody h63A10A7-39 (antibody, human IgG1, V domains shown, Human IgG1 constant region, human kappa constant region) VH: QVQLVQSGAEVKKPGASVKVSCKASGYTFISFTMHWVKQRPGQGLEWIGYINPNSGYTKYNQKFKDRVTLTRDTSTSTVYMELSSLRSEDTAVYYCTRGGGRGFAYWGQGTLVTVSS VL: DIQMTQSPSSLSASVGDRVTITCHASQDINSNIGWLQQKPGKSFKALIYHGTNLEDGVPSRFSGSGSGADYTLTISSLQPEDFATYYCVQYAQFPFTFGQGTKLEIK ? 1960 MFI

I'd like to know its mean fluorescence intensity (MFI). The binder in question is Chimeric antibody c63A10A7 (antibody, human IgG1, V domains shown, also called chimeric antibody 63A10) VH: QVQLQQSGAELARPGASVKMSCKASGYTFISFTMHWVKQRPGQGLEWIGYINPNSGYTKYNQKFKDKATLTAGQSSSTAYMQLSSLTSEDSAVYYCTRGGGRGFAYWGQGTLVTVSA VL: DILMTQSPSSMSVSLGDTVTITCHASQDINSNIGWLQQKPGKSFKALIYHGTNLEDGVPSRFSGSGSGADYSLTISSLESEDFADYYCVQYAQFPFTFGSGTKLEIK 4730 MFI

Entry under review: Humanized antibody h63A10A7-21 (antibody, human IgG1, V domains shown, Human IgG1 constant region, human kappa constant region) VH: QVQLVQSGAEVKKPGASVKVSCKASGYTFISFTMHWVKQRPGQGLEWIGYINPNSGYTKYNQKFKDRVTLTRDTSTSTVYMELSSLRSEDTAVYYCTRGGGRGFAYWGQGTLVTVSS VL: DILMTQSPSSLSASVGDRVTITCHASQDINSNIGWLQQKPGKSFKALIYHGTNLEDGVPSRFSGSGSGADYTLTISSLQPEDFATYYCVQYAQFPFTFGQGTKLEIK . Reported mean fluorescence intensity (MFI)? 7930 MFI

Endpoint output: mean fluorescence intensity (MFI) of Humanized antibody h63A10A7-26 (antibody, human IgG1, V domains shown, Human IgG1 constant region, human kappa constant region) VH: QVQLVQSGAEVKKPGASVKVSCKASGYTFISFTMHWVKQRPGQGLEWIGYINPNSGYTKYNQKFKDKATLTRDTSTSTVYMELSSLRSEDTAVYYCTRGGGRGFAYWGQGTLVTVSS VL: DILMTQSPSSLSASVGDRVTITCHASQDINSNIGWYQQKPGKSFKALIYHGTNLEDGVPSRFSGSGSGADFTLTISSLQPEDFATYYCVQYAQFPFTFGQGTKLEIK . Value? 6130 MFI
